Biological target: recombinant human DPPII (Homo sapiens (Human), UniProt Q9UHL4)
Assay: In vitro inhibition assay, dipeptidyl peptidase II
Settings: Lys-Pro-AMC substrate, read-out: DPP2
IC50 strictly less than 50 nM = yes (1). Otherwise no (0).

>  <mol_smiles>
NC(=O)C[C@H](N)C(=O)N1Cc2ccc(F)cc2C1

>  <assayed_target>
recombinant human DPPII (Homo sapiens (Human), UniProt Q9UHL4)

>  <assigned_class>
no (0)

$$$$
>  <mol_smiles>
CC[C@@H](C)[C@H](N)C(=O)N1CCC[C@H]1B(O)O

>  <assayed_target>
recombinant human DPPII (Homo sapiens (Human), UniProt Q9UHL4)

>  <assigned_class>
yes (1)

$$$$
>  <mol_smiles>
O=C([C@@H]1CCCN1)N1CCC[C@H]1B(O)O

>  <assayed_target>
recombinant human DPPII (Homo sapiens (Human), UniProt Q9UHL4)

>  <assigned_class>
no (0)

$$$$
>  <mol_smiles>
NCCCC[C@H](N)C(=O)N1Cc2ccc(F)cc2C1

>  <assayed_target>
recombinant human DPPII (Homo sapiens (Human), UniProt Q9UHL4)

>  <assigned_class>
no (0)

$$$$
>  <mol_smiles>
CC[C@H](C)[C@H](N)C(=O)N1CCC[C@H]1B(O)O

>  <assayed_target>
recombinant human DPPII (Homo sapiens (Human), UniProt Q9UHL4)

>  <assigned_class>
yes (1)

$$$$
>  <mol_smiles>
N[C@@H](CCC(=O)O)C(=O)N1CCC[C@H]1B(O)O

>  <assayed_target>
recombinant human DPPII (Homo sapiens (Human), UniProt Q9UHL4)

>  <assigned_class>
yes (1)

$$$$
>  <mol_smiles>
NC1(C(=O)N2CCSC2)CCNCC1

>  <assayed_target>
recombinant human DPPII (Homo sapiens (Human), UniProt Q9UHL4)

>  <assigned_class>
no (0)

$$$$
>  <mol_smiles>
CC(C)[C@H](N)C(=O)N1C[C@@H](O)C[C@H]1B(O)O

>  <assayed_target>
recombinant human DPPII (Homo sapiens (Human), UniProt Q9UHL4)

>  <assigned_class>
no (0)

$$$$
>  <mol_smiles>
N[C@H](C(=O)N1Cc2ccc(F)cc2C1)C1CCCC1

>  <assayed_target>
recombinant human DPPII (Homo sapiens (Human), UniProt Q9UHL4)

>  <assigned_class>
no (0)

$$$$
>  <mol_smiles>
CC[C@H](N)C(=O)N1CCC[C@H]1B(O)O

>  <assayed_target>
recombinant human DPPII (Homo sapiens (Human), UniProt Q9UHL4)

>  <assigned_class>
yes (1)

$$$$
